Data origin, for the record: ChEMBL document CHEMBL1142426

# Subject Of Test: Peptide deformylase (Escherichia coli) (UniProt Q9JN24)
# Sequence (whole entry): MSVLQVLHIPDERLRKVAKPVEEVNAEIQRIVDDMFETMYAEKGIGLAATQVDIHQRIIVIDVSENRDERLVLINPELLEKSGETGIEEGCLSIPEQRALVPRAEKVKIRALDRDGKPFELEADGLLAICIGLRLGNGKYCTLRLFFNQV
# Test Protocol: Inhibition of cobalt-substituted Escherichia coli PDF
Reported Property: pKi
Quick note: pKi means taking -log10 of the concentration in moles per liter.

Check out these entries, answers already filled in.
Prompt: Report pKi, nothing else, for this compound: CC(C)(C)[C@@H]1NC(=O)[C@@H](CC(=O)NO)CCCCCCCCCNC1=O
Completion: 6.68

Prompt: Report pKi, nothing else, for this compound: CC(C)(C)[C@@H]1NC(=O)[C@@H](CN(O)C=O)CCCCCCCCCNC1=O
Completion: 6.96

Alright, here's another compound for you.
Prompt: Report pKi, nothing else, for this compound: O=C(C[C@H]1CCCCCCCCCNC(=O)[C@@H]2CCCN2C1=O)NO
Completion: 4.80
